Data provenance is patent US5472954A.

Experiment: physchem
Settings: aqueous 10% hpbetacd
MEASURED_METRIC: solubility (µg/mL)
Give the value, in units of µg/mL, as a plain number.

Tell me measured solubility for Clc1ccc(COC(Cn2ccnc2)c2ccc(Cl)cc2Cl)cc1 (centres unmarked) please.
4860

Tell me measured solubility for `C[C@]12C=CC(=O)C=C1CC[C@@H]1[C@@H]2[C@@H](O)C[C@@]2(C)[C@H]1CC[C@]2(O)C(=O)CO` please.
13600

Tell me measured solubility for CCOc1ccc2nc(S(N)(=O)=O)sc2c1 [Ethoxyzolamide] please.
1190

Tell me measured solubility for `Cc1nnc2n1-c1ccc(Cl)cc1C(c1ccccc1)=NC2` please.
1280

Tell me measured solubility for `Clc1ccccc1C(c1ccccc1)(c1ccccc1)n1ccnc1` please.
1200

Tell me measured solubility for Clc1ccc(COC(Cn2ccnc2)c2ccc(Cl)cc2Cl)c(Cl)c1 (centres unmarked) please.
1980

Tell me measured solubility for CC1(C)O[C@@H]2C[C@H]3[C@@H]4CCC5=CC(=O)C=C[C@]5(C)[C@@]4(F)[C@@H](O)C[C@]3(C)[C@]2(C(=O)CO)O1 [Triamcinolone acetonide, triamcinolone acetonide] please.
2090

Tell me measured solubility for CC(=O)Nc1nnc(S(N)(=O)=O)s1 [Acetazolamide, acetazolamide] please.
2520

----------
Assay: physchem
Conditions: water
MEASURED_METRIC: solubility (µg/mL)
Give the value, in units of µg/mL, as a plain number.

Tell me measured solubility for `COc1cc(C=O)ccc1O` please.
13900

Tell me measured solubility for `CN(C)c1ccc(N=Nc2ccccc2)cc1` please.
0.64

Tell me measured solubility for CC12CCC(CC1=O)C2(C)C (stereo not shown) please.
1840

Tell me measured solubility for `CC(C)(O)C(Cl)(Cl)Cl` please.
8110

----------
Experiment: Effect of previously prepared solid HPβCD-polymer complexing agent on solubility (Example 13)
Format: physicochemical
Settings: 9.88% hpbetacd + 0.12% cmc; 9.88% (w/v) HPβCD and 0.12% (w/v) CMC; read-out: S3 solubility
MEASURED_METRIC: solubility

Tell me measured solubility for Clc1ccc(COC(Cn2ccnc2)c2ccc(Cl)cc2Cl)cc1 (centres unmarked) please.
5200 µg/mL

Tell me measured solubility for NC(=O)N1c2ccccc2C=Cc2ccccc21 [Carbamazepine, carbamazepine] please.
6660 µg/mL

----------
Experiment: physchem
Conditions: 10% ethanol, 10% hpbcd, organic solvent or mixture
MEASURED_METRIC: solubility (µg/mL)
Give the value, in units of µg/mL, as a plain number.

Tell me measured solubility for CC(=O)Nc1nnc(S(N)(=O)=O)s1 [Acetazolamide, acetazolamide] please.
2190

Tell me measured solubility for Clc1ccc(COC(Cn2ccnc2)c2ccc(Cl)cc2Cl)c(Cl)c1 (centres unmarked) please.
2220

----------
Experiment: physchem
Details: 10% ethanol, 0.25% cmc, organic solvent or mixture
MEASURED_METRIC: solubility (µg/mL)
Give the value, in units of µg/mL, as a plain number.

Tell me measured solubility for CC(=O)Nc1nnc(S(N)(=O)=O)s1 [Acetazolamide, acetazolamide] please.
750

----------
Assay: Effect of polymers on the solubilization of various compounds in aqueous HPβCD solutions (Example 14)
Settings: HPβCD with CMC / HPβCD without polymer (S6)
Can you tell me solubility ratio for the items I'm about to list?

Tell me measured solubility ratio for COc1cc(C=O)ccc1O [Vanillin] please.
1.09

Tell me measured solubility ratio for COc1ccc(O)c(C(C)(C)C)c1 [Butylated hydroxyanisole] please.
1.03

Tell me measured solubility ratio for CN(C)c1ccc(N=Nc2ccccc2)cc1 [Methylyellow] please.
1.04

Tell me measured solubility ratio for C=C1CC[C@H](O)C/C1=C/C=C1\CCC[C@]2(C)[C@@H]([C@H](C)CCCC(C)C)CC[C@@H]12 [Cholecalciferol] please.
1.18

Tell me measured solubility ratio for O=C(O)c1ccccc1O [Salicylic acid] please.
1.14
